Tested on: NIH3T3
Experiment notes: Inhibition of sterol biosynthesis in Swiss Albino mouse 3T3 cells assessed as incorporation of [2-14C]acetate in cholesterol at 1 uM
Type: functional
Set-up: scale not given: the % may be the effect or the level left
Exercise: state measured Activity for each of the compounds provided.

{"Structure notation": "C/C(=C\\COCCCc1ccccc1)CC/C=C(\\C)CCCN(C)C", "Endpoint label": "Activity", "Result": "31.3%"}
{"Structure notation": "C/C(=C\\COCCCc1cccc2ccccc12)CC/C=C(\\C)CCCN(C)C", "Endpoint label": "Activity", "Result": "72.7%"}
{"Structure notation": "C/C(=C\\COCCCc1ccc(-c2ccccc2)cc1)CC/C=C(\\C)CCCN(C)C", "Endpoint label": "Activity", "Result": "53.2%"}
{"Structure notation": "C/C(=C\\COCCCc1ccccc1)CC/C=C(\\C)CCC(=O)N(C)C", "Endpoint label": "Activity", "Result": "84.6%"}
{"Structure notation": "C/C(=C\\CO)CC/C=C(\\C)CCCN(C)C", "Endpoint label": "Activity", "Result": "88.2%"}

Next up:
Request: What does the record list as Activity for CCCCCCOC/C=C(\C)CC/C=C(\C)CCCN(C)C ?
Response: 35.5%

====

Exercise: state measured Activity for each of the compounds provided.
System: NIH3T3
Experiment notes: Inhibition of sterol biosynthesis in Swiss Albino mouse 3T3 cells assessed as incorporation of [2-14C]acetate in 2,3-oxidosqualene at 1 uM
Format: functional
Design: scale not given: the % may be the effect or the level left
Answers are plain numbers, in %.

{"Structure notation": "C/C(=C\\COCCCc1ccccc1)CC/C=C(\\C)CCC(=O)N(C)C", "Activity [%]": 4.6}
{"Structure notation": "C/C(=C\\COCCCc1ccc(-c2ccccc2)cc1)CC/C=C(\\C)CCCN(C)C", "Activity [%]": 17.5}
{"Structure notation": "CCCCCCOC/C=C(\\C)CC/C=C(\\C)CCCN(C)C", "Activity [%]": 29.6}
{"Structure notation": "C/C(=C\\CO)CC/C=C(\\C)CCCN(C)C", "Activity [%]": 3.9}
{"Structure notation": "C/C(=C\\COCCCc1ccccc1)CC/C=C(\\C)CCCN(C)C", "Activity [%]": 27.9}

Next up:
Request: What does the record list as Activity for C/C(=C\COCCCc1cccc2ccccc12)CC/C=C(\C)CCCN(C)C ?
Response: 12.5

====

Test target: UniProtKB P38604
Sequence (P38604 whole entry): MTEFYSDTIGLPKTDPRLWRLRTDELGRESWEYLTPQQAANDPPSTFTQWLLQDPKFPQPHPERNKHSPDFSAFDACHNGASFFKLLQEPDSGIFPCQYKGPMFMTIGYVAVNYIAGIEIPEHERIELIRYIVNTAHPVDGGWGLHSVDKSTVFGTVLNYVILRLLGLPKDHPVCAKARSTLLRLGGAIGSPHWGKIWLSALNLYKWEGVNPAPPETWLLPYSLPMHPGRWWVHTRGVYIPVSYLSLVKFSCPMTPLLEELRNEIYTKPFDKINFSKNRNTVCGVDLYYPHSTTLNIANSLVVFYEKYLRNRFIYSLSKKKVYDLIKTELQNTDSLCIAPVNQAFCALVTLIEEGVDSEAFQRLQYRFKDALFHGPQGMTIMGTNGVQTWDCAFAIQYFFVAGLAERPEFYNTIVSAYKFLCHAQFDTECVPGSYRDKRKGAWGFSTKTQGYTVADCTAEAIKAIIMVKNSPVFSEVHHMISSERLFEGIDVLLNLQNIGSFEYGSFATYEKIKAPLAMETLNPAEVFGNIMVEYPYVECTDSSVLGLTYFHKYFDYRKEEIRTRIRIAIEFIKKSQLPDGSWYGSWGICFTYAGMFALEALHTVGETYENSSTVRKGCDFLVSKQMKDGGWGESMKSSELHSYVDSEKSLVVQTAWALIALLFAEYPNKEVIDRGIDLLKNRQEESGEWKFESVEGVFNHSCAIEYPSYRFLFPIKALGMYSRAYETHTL
Endpoint label: pIC50
Give bare numbers, as −log10 of the molar value.

Request: What does the record list as pIC50 for C/C(=C\COCCCc1ccccc1)CC/C=C(\C)CCCN(C)C ?
Response: 6.35

====

Test target: Lanosterol synthase (Pneumocystis carinii, UniProt Q96WJ0)
Sequence (Q96WJ0 whole entry): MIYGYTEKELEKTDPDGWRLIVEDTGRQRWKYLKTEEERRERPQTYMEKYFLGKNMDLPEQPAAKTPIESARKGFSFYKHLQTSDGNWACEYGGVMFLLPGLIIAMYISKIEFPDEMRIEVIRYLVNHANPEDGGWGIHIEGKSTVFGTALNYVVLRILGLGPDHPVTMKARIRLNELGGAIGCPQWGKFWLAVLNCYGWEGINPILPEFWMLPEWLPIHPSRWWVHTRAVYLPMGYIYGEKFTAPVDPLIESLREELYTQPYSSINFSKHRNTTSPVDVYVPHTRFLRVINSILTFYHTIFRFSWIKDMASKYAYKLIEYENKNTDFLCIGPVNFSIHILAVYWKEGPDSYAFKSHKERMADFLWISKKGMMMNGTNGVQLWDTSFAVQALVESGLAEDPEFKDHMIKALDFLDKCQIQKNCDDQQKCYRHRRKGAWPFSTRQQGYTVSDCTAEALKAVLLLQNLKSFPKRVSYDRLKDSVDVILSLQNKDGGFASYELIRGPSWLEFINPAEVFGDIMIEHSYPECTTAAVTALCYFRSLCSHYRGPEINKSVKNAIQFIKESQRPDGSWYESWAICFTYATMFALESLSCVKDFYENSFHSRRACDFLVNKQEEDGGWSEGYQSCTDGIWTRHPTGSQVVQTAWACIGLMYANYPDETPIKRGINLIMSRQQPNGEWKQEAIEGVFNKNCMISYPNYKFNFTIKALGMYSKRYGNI
Endpoint label: pIC50
One number for each entry, as −log10 of the molar value.

{"Structure notation": "C/C(=C\\COCCCc1ccc(-c2ccccc2)cc1)CC/C=C(\\C)CCCN(C)C", "pIC50": 5.77}

Next up:
Request: What does the record list as pIC50 for C/C(=C\COCCCc1ccccc1)CC/C=C(\C)CCCN(C)C ?
Response: 6.48

====

Experiment notes: Inhibition of Trypanosoma cruzi oxidosqualene cyclase
Exercise: state measured pIC50 for each of the compounds provided.
Give bare numbers, as −log10 of the molar value.

Please review the entries below; each comes with its answer.
{"Structure notation": "C/C(=C\\COCCCc1ccccc1)CC/C=C(\\C)CCCN(C)C", "Numeric value": 6.33}
{"Structure notation": "C/C(=C\\COCCCc1ccc(-c2ccccc2)cc1)CC/C=C(\\C)CCCN(C)C", "Numeric value": 5.13}

Next up:
Request: What does the record list as pIC50 for CCCCCCOC/C=C(\C)CC/C=C(\C)CCCN(C)C ?
Response: 5.57

====

Test target: UniProt P48449
Sequence (P48449 whole entry): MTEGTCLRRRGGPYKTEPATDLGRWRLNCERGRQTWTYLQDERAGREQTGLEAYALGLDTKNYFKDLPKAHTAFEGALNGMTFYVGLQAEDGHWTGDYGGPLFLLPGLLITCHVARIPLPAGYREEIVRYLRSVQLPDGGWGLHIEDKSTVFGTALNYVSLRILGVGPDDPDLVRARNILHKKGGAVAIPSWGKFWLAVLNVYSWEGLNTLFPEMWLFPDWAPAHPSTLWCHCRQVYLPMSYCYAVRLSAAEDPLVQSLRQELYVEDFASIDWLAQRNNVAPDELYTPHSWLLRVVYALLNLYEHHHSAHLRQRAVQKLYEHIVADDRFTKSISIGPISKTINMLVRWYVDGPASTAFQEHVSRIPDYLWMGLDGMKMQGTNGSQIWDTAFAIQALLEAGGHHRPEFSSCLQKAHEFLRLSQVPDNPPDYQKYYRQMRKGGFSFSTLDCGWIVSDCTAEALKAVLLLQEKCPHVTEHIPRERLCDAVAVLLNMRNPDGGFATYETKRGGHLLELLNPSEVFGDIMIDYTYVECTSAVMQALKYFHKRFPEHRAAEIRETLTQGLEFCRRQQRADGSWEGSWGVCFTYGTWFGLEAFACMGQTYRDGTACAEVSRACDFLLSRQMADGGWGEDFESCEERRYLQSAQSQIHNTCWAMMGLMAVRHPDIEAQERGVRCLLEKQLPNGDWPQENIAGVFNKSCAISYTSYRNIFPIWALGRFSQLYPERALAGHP
Endpoint label: pIC50
Give bare numbers, as −log10 of the molar value.

Request: Recall the recorded pIC50 for C/C(=C\COCCCc1ccc(-c2ccccc2)cc1)CC/C=C(\C)CCCN(C)C with UniProt P48449 and state it.
Response: 5.35

====

Test system: NIH3T3
Experiment notes: Inhibition of sterol biosynthesis in Swiss Albino mouse 3T3 cells assessed as incorporation of [2-14C]acetate in squalene at 1 uM
Assay type: functional
Design: scale not given: the % may be the effect or the level left
# cutoff 5% applies to Activity; >= gives Condition met, < gives Condition not met

{"Structure notation": "CCCCCCOC/C=C(\\C)CC/C=C(\\C)CCCN(C)C", "Assigned category": "Condition not met"}

Request: Is Activity for C/C(=C\COCCCc1ccccc1)CC/C=C(\C)CCCN(C)C at or above 5%?
Response: Condition met

Request: Cool, now C/C(=C\CO)CC/C=C(\C)CCCN(C)C
Response: Condition not met

Request: Cool, now C/C(=C\COCCCc1ccccc1)CC/C=C(\C)CCC(=O)N(C)C
Response: Condition not met

Request: Cool, now C/C(=C\COCCCc1cccc2ccccc12)CC/C=C(\C)CCCN(C)C
Response: Condition met
